system: MOLT-4 leukemia; assay: NCI tumour cell line growth inhibition, 48 h
Measured TGI of individual entries
Express it in µM; write the number only.

Completed entries (count: 4):
> print(dat)
                                   compound  target.of.assay  outcome.measure  observed.result
1       COc1ccccc1NC(=O)c1cc2cc(Br)ccc2cc1O  MOLT-4 leukemia              TGI             17.3
2  Cc1ccc(-c2nc(N3CCNCC3)c3oc(-c4ccc(C)cc4)nc3n2)cc1  MOLT-4 leukemia              TGI             4.69
3  O=C1/C(=C\c2ccc(Cl)cc2Cl)Sc2scc(-c3ccc(O)c(O)c3)[n+]21  MOLT-4 leukemia              TGI             29.6
4  C=C1C(=O)O[C@H]2[C@H]1CC/C(CNC(=O)c1cc3ccccc3[nH]1)=C\CC[C@@]1(C)O[C@@H]21  MOLT-4 leukemia              TGI             4.55

Observed TGI on MOLT-4 leukemia, entry `Cc1cc2c(cc1C)[n+](=O)c(C(=O)c1ccccc1)c(C(F)F)n2[O-]` , equals 43.1

Observed TGI on MOLT-4 leukemia, entry `C=C1C[C@H](O)[C@H](Br)C(C)(C)[C@@]12CCC(C)=C(Cl)C2` , equals 0.795

Observed TGI on MOLT-4 leukemia, entry C=C1C(=O)O[C@@H]2/C=C(C)/C=C\[C@@H]3O[C@@]3(C)C[C@@H](O)C12 (stereo partly specified) , equals 30.1

Observed TGI on MOLT-4 leukemia, entry COCCOCOC(CCCCO)c1cc(C)c(O[Si](C)(C)C(C)(C)C)c(C)c1 (stereo unspecified) , equals 13.2

Observed TGI on MOLT-4 leukemia, entry `O=C1OC(c2ccccc2)=N/C1=C\c1ccc([N+](=O)[O-])cc1` , equals 58.1

###

Measured TGI of individual entries
system: NCI-H460 lung; assay: NCI tumour cell line growth inhibition, 48 h

Completed entries (count: 5):
Compound	Target Of Assay	Outcome Measure	Observed Result
CCCC/C=C/C=C/C=C/CCCCCCCC(=O)OCC(COC(=O)CCCCCCC/C=C/C1C=CC(CCCC)C(C(=O)O)C1C(=O)O)OC(=O)CCCCCCC/C=C/C=C/C=C/CCCC (stereo unspecified) (tested in a mixture with another compound)	NCI-H460 lung	TGI	> 100 µM
C=CCNC(=S)N/C=C(\C#N)C(N)=O	NCI-H460 lung	TGI	> 100 µM
Nc1ncc2c(n1)-c1ccccc1OC2N1CCCCC1 (stereo unspecified)	NCI-H460 lung	TGI	> 100 µM
COc1ccc(Cn2c(Br)c3c(c2Br)-c2nc(N)sc2CC3)cc1	NCI-H460 lung	TGI	17.3 µM
O=C(O)C1C2c3ccccc3C(c3ccccc32)C1C(=O)NCC1CC1 (stereo unspecified)	NCI-H460 lung	TGI	> 100 µM

// O=C1c2ccccc2-n2nnnc2C2CSCN12 (stereo unspecified) : TGI value = > 100 µM

###

test system: RXF 393 renal; experiment: NCI tumour cell line growth inhibition, 48 h
Outcome Measure: TGI

Completed entries (count: 3):
> print(dat)
                                   compound  observed.result
1  Cc1ccc(NC2=C3CCCCC3OC2=O)cc1 (stereo unspecified)         > 100 µM
2       COc1ccccc1NC(=O)c1cc2cc(Br)ccc2cc1O          7.11 µM
3                 CCn1cnc2c(=S)nc(N)[nH]c21         > 100 µM

// `COc1cc(-c2nn(-c3cccc(NC(=O)c4ccccc4)c3)cc2-c2ccncc2)ccc1Cl` : TGI value = > 25.2 µM

// `CC(=O)OCCOCNC(=S)N/N=C/c1ccc([N+](=O)[O-])o1` : TGI value = > 100 µM

// CNC(=O)NCCCC(NC(C)=O)C(=O)NCc1ccccc1 (stereo unspecified) : TGI value = > 100 µM

###

system: SN12C renal; assay: NCI tumour cell line growth inhibition, 48 h
Outcome Measure: GI50

Molecule Smiles	GI50
Cc1cc(Nc2ccc(C)c(Cl)c2)n2nc(C(F)(F)F)nc2n1	18.8 µM
CC1(C)[C@@H](NOCCCN)CC[C@]2(C)[C@H]3C(=O)C=C4[C@@H]5C[C@](C)(C(=O)O)CC[C@]5(C)CC[C@@]4(C)[C@]3(C)CC[C@@H]12	4.6 µM
COC(=O)[C@]12CC[C@@H](C)[C@H](C)[C@@H]1C1=CC[C@@H]3[C@@]4(C)C[C@@H](O)[C@H](O)[C@@](C)(CO)[C@@H]4[C@H](O)C[C@@]3(C)[C@]1(C)CC2	14.5 µM
C/C=C/[C@@H]1O[C@@H]2COC(=O)C2=C[C@@H]1O	15.4 µM
CC(=C(c1ccc(OCCN2CCCCC2)cc1)c1ccc(OCCN2CCCCC2)cc1)c1ccc(Cl)cc1	0.414 µM

Please look at the following compound next.
// `COc1cc(-c2nn(-c3cccc(NC(=O)c4ccccc4)c3)cc2-c2ccncc2)ccc1Cl` : GI50 value = 1.45 µM

###

Measured TGI of individual entries
system: LXFL 529 NSCLC; test: NCI tumour cell line growth inhibition, 48 h

Completed entries (count: 5):
> print(dat)
                                   compound  outcome.measure  observed.result
1  O=C(/C=C/c1c(O)ccc2ccccc12)c1ccc([N+](=O)[O-])cc1              TGI          30.4 µM
2     CCOc1ccc(NC2=CC(=O)C(=O)c3ccccc32)cc1              TGI          11.2 µM
3           N#Cc1cccc(-n2[nH]c(=O)ccc2=O)c1              TGI         > 100 µM
4                      CCCCCCCCCCCCNC(=S)OC              TGI          28.2 µM
5                 CCn1cnc2c(=S)nc(N)[nH]c21              TGI         > 100 µM

Please look at the following compound next.
// O=S1C(=c2ccc(=C3Sc4ccccc4S3)cc2)Sc2ccccc21 (stereo unspecified) : TGI value = > 100 µM

###

Measured TGI of individual entries
test system: MCF7 breast; experiment: NCI tumour cell line growth inhibition, 48 h
Express it in µM; write the number only.

Completed entries (count: 2):
Compound	TGI / µM
Cc1cc(OC(=O)Nc2cccc3ccccc23)c(C(C)C)cc1C(=S)Nc1ccccc1	34.7
NC(=S)N/N=C1\c2cc(Cl)ccc2-c2c1cc(Cl)cc2[N+](=O)[O-]	16.8

// COCOC1/C=C/CCCCC(=O)C(C)C#CC1 (stereo not given) : TGI value = 14.8

// `COc1ccccc1NC(=O)c1cc2cc(Br)ccc2cc1O` : TGI value = 9.3

// `C(=C/CCCN1O[C@@H](CCCCCCCCc2cccnc2)[C@H]2CCC[C@H]21)/CCCCCCCCCc1cccnc1` : TGI value = 31.6

// CC(C)(C)[Si](C)(C)OC1[C@@H](O[Si](C)(C)C(C)(C)C)[C@@H](CNC(=O)NC(=O)C(F)(F)F)O[C@H]1n1cnc2c(NC(=O)Nc3ccccc3)ncnc21 (stereo not given in full) : TGI value = 8.07

###

system: RXF 393 renal; test: NCI tumour cell line growth inhibition, 48 h
Measured TGI of individual entries
Express it in µM; write the number only.

Completed entries (count: 2):
> print(dat)
                                   compound  observed.result
1  COCOC1/C=C/CCCCC(=O)C(C)C#CC1 (configuration not stated)             9.19
2      NC(=S)N/N=C\c1nccc2c(C(F)(F)F)cccc12             2.53

// COc1ccc(C2c3cc4c(cc3OC3(OC)COC(=O)C23)OCO4)c(OC)c1 (configuration not stated) : TGI value = 35.4

###

test system: OVCAR-5 ovarian; experiment: NCI tumour cell line growth inhibition, 48 h
Outcome Measure: TGI

> print(dat)
                                   compound  target.of.assay  observed.result
1  COc1ccc(C(c2cc(OC)c(OC)c(OC)c2)n2cncn2)cc1O (stereo not given)  OVCAR-5 ovarian         > 100 µM
2  CC(C)[C@@H]1NC(=O)[C@]2(C)CSC(=N2)c2ccnc(c2)CNC(=O)C[C@@H](/C=C/CCS)OC1=O  OVCAR-5 ovarian         > 100 µM
3  CC(=C(c1ccc(OCCN2CCCCC2)cc1)c1ccc(OCCN2CCCCC2)cc1)c1ccc(Cl)cc1  OVCAR-5 ovarian         0.771 µM
4  OC(c1cc(C(F)(F)F)nc2c(C(F)(F)F)cccc12)C1CCCCN1 (stereo not given)  OVCAR-5 ovarian          10.4 µM

// `CCOC(=O)n1cc(C2=C(c3ccc(OC)c(OC)c3)COC2=O)c2ccccc21` : TGI value = > 100 µM

// `COc1ccc(Cn2c(Br)c3c(c2Br)-c2nc(N)sc2CC3)cc1` : TGI value = 50.5 µM
